Reference source for all entries: ChEMBL document CHEMBL1132110

- tested.system: Human immunodeficiency virus type 1 protease (Human immunodeficiency virus 1, UniProt Q72874)
pKi: −log10 of the molar value.
property.label: pKi

- molecule.smiles: "CNC(=O)[C@@H](NC(=O)[C@H](OCc1ccc(-c2cccnc2)cc1)[C@H](O)[C@@H](O)[C@@H](OCc1ccc(-c2cccnc2)cc1)C(=O)N[C@H](C(=O)NC)C(C)C)C(C)C"
  property.label: "pKi"
  result.number: 9.52
- molecule.smiles: "CNC(=O)[C@@H](NC(=O)[C@H](OCc1ccc(C2=C(O)C(=O)CCC2)cc1)[C@H](O)[C@@H](O)[C@@H](OCc1ccc(C2=C(O)C(=O)CCC2)cc1)C(=O)N[C@H](C(=O)NC)C(C)C)C(C)C"
  property.label: "pKi"
  result.number: 9.52
- molecule.smiles: "CNC(=O)[C@@H](NC(=O)[C@H](OCc1ccc(/C=C/C(=O)OC)cc1)[C@H](O)[C@@H](O)[C@@H](OCc1ccc(/C=C/C(=O)OC)cc1)C(=O)N[C@H](C(=O)NC)C(C)C)C(C)C"
  property.label: "pKi"
  result.number: 10.05
- molecule.smiles: "CNC(=O)[C@@H](NC(=O)[C@H](OCc1ccc(Br)cc1)[C@H](O)[C@@H](O)[C@@H](OCc1ccc(Br)cc1)C(=O)N[C@H](C(=O)NC)C(C)C)C(C)C"
  property.label: "pKi"
  result.number: 9.52
- molecule.smiles: "CNC(=O)[C@@H](NC(=O)[C@H](OCc1ccc(-c2ccccc2)cc1)[C@H](O)[C@@H](O)[C@@H](OCc1ccc(-c2ccccc2)cc1)C(=O)N[C@H](C(=O)NC)C(C)C)C(C)C"
  property.label: "pKi"
  result.number: 9.15

----------
- System: MT4
- protocol.description: The anti-HIV activity in the presence of human serum(hs) performed in MT-4 cells iwith AB+ serum.
- Type: functional
- measurement.setup: read-out: ED50 (the source's name)

- molecule.smiles: "CNC(=O)[C@@H](NC(=O)[C@H](OCc1ccccc1)[C@H](O)[C@@H](O)[C@@H](OCc1ccccc1)C(=O)N[C@H](C(=O)NC)C(C)C)C(C)C"
  unit.tag: "µM"
  EC50: 20

----------
- tested.system: Human immunodeficiency virus type 1 protease (Human immunodeficiency virus 1, UniProt Q72874)
property.label: Ki

- molecule.smiles: "CNC(=O)[C@@H](NC(=O)[C@H](OCc1ccc(CCc2ccccc2)cc1)[C@H](O)[C@@H](O)[C@@H](OCc1ccc(CCc2ccccc2)cc1)C(=O)N[C@H](C(=O)NC)C(C)C)C(C)C"
  property.label: "Ki"
  result: "3.8 nM"
- molecule.smiles: "CNC(=O)[C@@H](NC(=O)[C@H](OCc1ccc(-c2cccc([N+](=O)[O-])c2)cc1)[C@H](O)[C@@H](O)[C@@H](OCc1ccc(-c2cccc([N+](=O)[O-])c2)cc1)C(=O)N[C@H](C(=O)NC)C(C)C)C(C)C"
  property.label: "Ki"
  result: "1.4 nM"
- molecule.smiles: "CNC(=O)[C@@H](NC(=O)[C@H](OCc1ccc(-c2cccs2)cc1)[C@H](O)[C@@H](O)[C@@H](OCc1ccc(-c2cccs2)cc1)C(=O)N[C@H](C(=O)NC)C(C)C)C(C)C"
  property.label: "Ki"
  result: "1.2 nM"
- molecule.smiles: "CNC(=O)[C@@H](NC(=O)[C@H](OCc1ccc(-c2ccccn2)cc1)[C@H](O)[C@@H](O)[C@@H](OCc1ccc(-c2ccccn2)cc1)C(=O)N[C@H](C(=O)NC)C(C)C)C(C)C"
  property.label: "Ki"
  result: "0.6 nM"
- molecule.smiles: "CNC(=O)[C@@H](NC(=O)[C@H](OCc1ccc(-c2nccs2)cc1)[C@H](O)[C@@H](O)[C@@H](OCc1ccc(-c2nccs2)cc1)C(=O)N[C@H](C(=O)NC)C(C)C)C(C)C"
  property.label: "Ki"
  result: "0.6 nM"
